# Measured On: Cytochrome P450 2C19 (Homo sapiens)
# Sequence (P33261 whole entry): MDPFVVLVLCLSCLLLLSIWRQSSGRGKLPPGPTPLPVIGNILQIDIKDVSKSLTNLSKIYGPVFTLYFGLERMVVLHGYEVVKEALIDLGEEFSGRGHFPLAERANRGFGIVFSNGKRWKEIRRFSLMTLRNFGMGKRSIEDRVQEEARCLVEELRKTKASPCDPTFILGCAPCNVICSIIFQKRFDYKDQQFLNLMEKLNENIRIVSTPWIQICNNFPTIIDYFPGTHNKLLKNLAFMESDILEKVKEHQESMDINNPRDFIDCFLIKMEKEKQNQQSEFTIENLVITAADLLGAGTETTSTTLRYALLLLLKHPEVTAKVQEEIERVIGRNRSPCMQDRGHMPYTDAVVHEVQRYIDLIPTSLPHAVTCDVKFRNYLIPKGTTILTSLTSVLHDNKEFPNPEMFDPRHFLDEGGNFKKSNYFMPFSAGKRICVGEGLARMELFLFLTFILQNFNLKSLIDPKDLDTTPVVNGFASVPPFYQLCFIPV
# Protocol: Time dependent inhibition of CYP2C19 in human liver microsomes at 10 uM using mephenytoin substrate preincubated for 5 mins before NADPH addition and measured after 20 mins post NADPH addition
# Format: ADME

# Structure As Smiles, TDI
records = [
    ("Cc1ccc(-c2csc(=O)[nH]2)cc1S(=O)(=O)NC1CCCC1", "Active"),
    ("Cc1c(N)cc(-c2csc(=O)[nH]2)cc1S(=O)(=O)NC1CCCC1", "Not Active"),
    ("O=C(Nc1cc(-c2csc(=O)[nH]2)cc(S(=O)(=O)NC2CCCC2)c1)C1CC1", "Not Active"),
    ("CNc1cc(-c2csc(=O)[nH]2)cc(S(=O)(=O)NC2CCCC2)c1C", "Not Active"),
    ("Cc1sc2c(c1C)C(c1ccc(Cl)cc1)=N[C@@H](CC(=O)OC(C)(C)C)c1nnc(C)n1-2", "Active"),
    ("COc1ccc(-c2csc(=O)[nH]2)cc1S(=O)(=O)NC1CCCC1", "Active"),
    ("COc1cc2c(cc1-c1c(C)noc1C)ncc1[nH]c(=O)n([C@H](C)c3ccccn3)c12", "Not Active"),
    ("O=C(Nc1cc(-c2csc(=O)[nH]2)cc(S(=O)(=O)NC2CCCC2)c1)c1cccs1", "Not Active"),
]

* * *

# Measured On: Cytochrome P450 2C9 (Homo sapiens)
# Sequence (P11712 whole entry): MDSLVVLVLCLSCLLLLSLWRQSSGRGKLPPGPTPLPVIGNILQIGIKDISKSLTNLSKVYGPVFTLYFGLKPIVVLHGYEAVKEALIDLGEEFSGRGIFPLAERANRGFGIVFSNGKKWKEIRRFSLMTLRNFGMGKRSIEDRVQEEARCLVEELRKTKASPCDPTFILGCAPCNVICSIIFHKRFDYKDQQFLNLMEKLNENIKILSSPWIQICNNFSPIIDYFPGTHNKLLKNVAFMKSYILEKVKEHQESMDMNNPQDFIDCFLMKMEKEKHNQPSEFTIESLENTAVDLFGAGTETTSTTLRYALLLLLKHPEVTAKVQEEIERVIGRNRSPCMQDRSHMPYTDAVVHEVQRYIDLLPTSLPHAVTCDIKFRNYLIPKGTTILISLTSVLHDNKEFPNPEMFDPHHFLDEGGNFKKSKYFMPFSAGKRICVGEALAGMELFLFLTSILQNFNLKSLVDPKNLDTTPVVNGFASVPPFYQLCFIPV
# Protocol: Time dependent inhibition of CYP2C9 in human liver microsomes at 10 uM using diclofenac substrate preincubated for 5 mins before NADPH addition and measured after 20 mins post NADPH addition
# Assay type: ADME
Measure Name: TDI

# Structure As Smiles, Measured On, Measure Name, Value
measured = [
    ("Cc1ccc(-c2csc(=O)[nH]2)cc1S(=O)(=O)NC1CCCC1", "Cytochrome P450 2C9 (Homo sapiens)", "TDI", "Active"),
    ("Cc1sc2c(c1C)C(c1ccc(Cl)cc1)=N[C@@H](CC(=O)OC(C)(C)C)c1nnc(C)n1-2", "Cytochrome P450 2C9 (Homo sapiens)", "TDI", "Active"),
    ("COc1cc2c(cc1-c1c(C)noc1C)ncc1[nH]c(=O)n([C@H](C)c3ccccn3)c12", "Cytochrome P450 2C9 (Homo sapiens)", "TDI", "Not Active"),
    ("O=C(Nc1cc(-c2csc(=O)[nH]2)cc(S(=O)(=O)NC2CCCC2)c1)C1CC1", "Cytochrome P450 2C9 (Homo sapiens)", "TDI", "Not Active"),
    ("CNc1cc(-c2csc(=O)[nH]2)cc(S(=O)(=O)NC2CCCC2)c1C", "Cytochrome P450 2C9 (Homo sapiens)", "TDI", "Not Active"),
    ("Cc1c(N)cc(-c2csc(=O)[nH]2)cc1S(=O)(=O)NC1CCCC1", "Cytochrome P450 2C9 (Homo sapiens)", "TDI", "Not Active"),
    ("Cc1c(Br)cc(-c2csc(=O)[nH]2)cc1S(=O)(=O)NC1CCCC1", "Cytochrome P450 2C9 (Homo sapiens)", "TDI", "Active"),
    ("O=C(Nc1cc(-c2csc(=O)[nH]2)cc(S(=O)(=O)NC2CCCC2)c1)c1cccs1", "Cytochrome P450 2C9 (Homo sapiens)", "TDI", "Not Active"),
]

* * *

# Measured On: Bromodomain-containing protein 4 (Homo sapiens)
# Protocol: Inhibition of BRD4(1) (unknown origin) incubated for 4 hrs by (+)-JQ1 fluorescent ligand based fluorescence anisotrophy
pIC50: −log10 of the molar value.
Known pIC50 of a selection of compounds

# Compound, Qualifier Sign, pIC50
rows = [
    ("O=c1[nH]c(-c2cccc(S(=O)(=O)NCCc3cccs3)c2)cs1", "<", 5.00),
    ("Nc1ccc(NS(=O)(=O)c2cccc(-c3csc(=O)[nH]3)c2)cc1", "=", 5.08),
    ("Cc1c(Br)cc(-c2csc(=O)[nH]2)cc1S(=O)(=O)NC1CCCC1", "=", 7.22),
    ("O=c1[nH]c(-c2cccc(S(=O)(=O)NC3CCCCC3)c2)cs1", "=", 5.69),
    ("CCCC(=O)Nc1cc(-c2csc(=O)[nH]2)cc(S(=O)(=O)NC2CCCC2)c1C", "=", 6.03),
    ("O=c1[nH]c(-c2cccc(S(=O)(=O)NCC3CCCO3)c2)cs1 (stereo unspecified)", "=", 5.03),
    ("Cc1c(NC(=O)c2cccs2)cc(-c2csc(=O)[nH]2)cc1S(=O)(=O)NC1CCCC1", "=", 6.10),
    ("O=c1[nH]c(-c2cccc(S(=O)(=O)Nc3ccon3)c2)cs1", "=", 5.13),
    ("O=c1[nH]c(-c2ccc(F)c(S(=O)(=O)NC3CCCC3)c2)cs1", "=", 6.30),
    ("O=c1[nH]c(-c2cccc(S(=O)(=O)NC3CCCC3)c2)cs1", "=", 5.85),
    ("COc1ccc(-c2csc(=O)[nH]2)cc1S(=O)(=O)NC1CCCC1", "=", 6.12),
    ("O=c1[nH]c(-c2cccc(S(=O)(=O)NCc3ccccc3)c2)cs1", "<", 5.00),
    ("Nc1ccc(-c2csc(=O)[nH]2)cc1S(=O)(=O)NC1CCCC1", "=", 6.92),
    ("O=C(Nc1ccc(-c2csc(=O)[nH]2)cc1S(=O)(=O)NC1CCCC1)C1CC1", "=", 6.10),
    ("CCCC(=O)Nc1cc(-c2csc(=O)[nH]2)cc(S(=O)(=O)NC2CCCC2)c1", "=", 6.77),
    ("COc1ccc(NS(=O)(=O)c2cccc(-c3csc(=O)[nH]3)c2)cc1", "<", 5.00),
    ("Cc1ccc(-c2csc(=O)[nH]2)cc1S(=O)(=O)NC1CCCC1", "=", 6.66),
    ("O=c1[nH]c(-c2cccc(S(=O)(=O)NC3CC3)c2)cs1", "=", 5.65),
    ("Cc1c(NC(=O)C2CC2)cc(-c2csc(=O)[nH]2)cc1S(=O)(=O)NC1CCCC1", "=", 6.66),
    ("Nc1cc(-c2csc(=O)[nH]2)cc(S(=O)(=O)NC2CCCC2)c1", "=", 6.34),
    ("COCC(=O)Nc1ccc(-c2csc(=O)[nH]2)cc1S(=O)(=O)NC1CCCC1", "=", 6.40),
]

* * *

# Measured On: Bromodomain-containing protein 4 (Homo sapiens)
# Protocol: Inhibition of BRD4(1) (unknown origin) incubated for 4 hrs by (+)-JQ1 fluorescent ligand based fluorescence anisotrophy
pIC50: −log10 of the molar value.
Measure Name: pIC50

# Compound, Qualifier Sign, Value
data = [
    ("CNc1cc(-c2csc(=O)[nH]2)cc(S(=O)(=O)NC2CCCC2)c1C", "=", 6.60),
    ("O=c1[nH]c(-c2cc(Br)cc(S(=O)(=O)NC3CCCC3)c2)cs1", "=", 6.52),
    ("O=C(Nc1cc(-c2csc(=O)[nH]2)cc(S(=O)(=O)NC2CCCC2)c1)C1CC1", "=", 7.22),
    ("O=C(Nc1cc(-c2csc(=O)[nH]2)cc(S(=O)(=O)NC2CCCC2)c1)c1cccs1", "=", 6.96),
    ("O=c1[nH]c(-c2cccc(S(=O)(=O)NC3CCOC3)c2)cs1 (stereo not drawn)", "=", 5.24),
    ("O=c1[nH]c(-c2ccccc2F)cs1", "<", 4.00),
    ("O=c1[nH]c(-c2ccc(Cl)c(S(=O)(=O)NC3CCCC3)c2)cs1", "=", 6.60),
    ("Cc1c(N)cc(-c2csc(=O)[nH]2)cc1S(=O)(=O)NC1CCCC1", "=", 6.85),
]

* * *

# Protocol: Stability in human liver microsomes assessed as clearance at 1 uM pre-incubated for 5 mins followed by NADPH addition and measured after 5 to 30 mins post NADPH addition by LC/MS/MS method
# Type: ADME
# Test Context: read-out: CLH
Ranges used to classify microsomal CLint at 1 µM: A (below 60 µL/min/mg), B (60 µL/min/mg to below 80 µL/min/mg), C (80 µL/min/mg or more)

# Structure As Smiles, Cat
data = [
    ("O=C(Nc1cc(-c2csc(=O)[nH]2)cc(S(=O)(=O)NC2CCCC2)c1)C1CC1", "B"),
    ("Cc1c(N)cc(-c2csc(=O)[nH]2)cc1S(=O)(=O)NC1CCCC1", "B"),
    ("Cc1ccc(-c2csc(=O)[nH]2)cc1S(=O)(=O)NC1CCCC1", "C"),
    ("Cc1c(Br)cc(-c2csc(=O)[nH]2)cc1S(=O)(=O)NC1CCCC1", "C"),
    ("Nc1ccc(-c2csc(=O)[nH]2)cc1S(=O)(=O)NC1CCCC1", "A"),
    ("CNc1cc(-c2csc(=O)[nH]2)cc(S(=O)(=O)NC2CCCC2)c1C", "C"),
    ("O=C(Nc1cc(-c2csc(=O)[nH]2)cc(S(=O)(=O)NC2CCCC2)c1)c1cccs1", "B"),
    ("COc1ccc(-c2csc(=O)[nH]2)cc1S(=O)(=O)NC1CCCC1", "A"),
]
